Catalogue of IC50 readings, one per entry.
TESTED_ON: C-X-C chemokine receptor type 3 (Homo sapiens, UniProt P49682)
Sequence (P49682 whole entry): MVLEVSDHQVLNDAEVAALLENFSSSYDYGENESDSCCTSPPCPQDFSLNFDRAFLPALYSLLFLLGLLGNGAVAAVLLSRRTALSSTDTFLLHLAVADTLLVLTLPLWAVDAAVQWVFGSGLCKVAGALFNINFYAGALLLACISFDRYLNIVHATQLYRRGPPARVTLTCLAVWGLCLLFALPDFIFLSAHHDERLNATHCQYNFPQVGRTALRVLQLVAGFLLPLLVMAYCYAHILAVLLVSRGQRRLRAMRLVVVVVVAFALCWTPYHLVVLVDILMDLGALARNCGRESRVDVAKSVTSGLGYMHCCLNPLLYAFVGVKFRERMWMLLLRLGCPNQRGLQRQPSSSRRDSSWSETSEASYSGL
ASSAY_PROCEDURE: Displacement of radiolabeled CXCL11 from human CXCR3 expressed in CHO cells by scintillation proximity assay
Assay type: cell-based
// return numeric value only (unit: µM, not printed)

Past entries and their recorded results:
>>> assay_result("CN1CCN(CCn2cc3c4c(cccc42)C2=C[C@@H](C(=O)N4CCCC4)CN(C(=O)Nc4ccccc4)[C@@H]2C3)CC1")
0.005
>>> assay_result("O=C([C@@H]1C=C2c3cccc4[nH]cc(c34)C[C@H]2N(C(=O)NC2CCCC2)C1)N1CCCC1")
0.16

## Input Return reported IC50; argument: "COc1ccccc1NC(=O)N1C[C@H](C(=O)N2CCCC2)C=C2c3cccc4[nH]cc(c34)C[C@H]21"
## Output 0.523

## Input Entry "O=C([C@@H]1C=C2c3cccc4c3c(cn4CCN3CCCC3)C[C@H]2N(C(=O)Nc2ccccc2)C1)N1CCCC1" : reported IC50 = ?
## Output 0.003
